Test system: rat plasma protein
Experiment: Rat plasma protein binding
The label is YES for Rat Plasma Protein Binding below 70 % bound and NO for Rat Plasma Protein Binding equal to or exceeding 70 % bound.

{"columns": ["structure_smiles", "category"],
 "data": [
  ["OC[C@@H]1[C@@H](O)[C@H](O)[C@@H](O)CN1CCCCCCOc1cccc(C(F)(F)F)c1", "NO"],
  ["CCC(O)(CC)CCCCCCN1C[C@H](O)[C@@H](O)[C@H](O)[C@H]1CO", "YES"],
  ["CCCOc1cccc(CCCN2C[C@H](O)[C@@H](O)[C@H](O)[C@H]2CO)c1", "YES"],
  ["CCCC(CCC)OCCCCCCN1C[C@H](O)[C@@H](O)[C@H](O)[C@H]1CO", "NO"],
  ["OC[C@@H]1[C@@H](O)[C@H](O)[C@@H](O)CN1CCCCCCOC1CCCCCC1", "YES"],
  ["OC[C@@H]1[C@@H](O)[C@H](O)[C@@H](O)CN1CCCCCCOCc1ccccc1", "YES"],
  ["Cc1cccc(OCCCCCCN2C[C@H](O)[C@@H](O)[C@H](O)[C@H]2CO)c1", "NO"]
]}

* * *

Test: MTT cytotoxicity assay in BHK cells
Details: hamster

{"columns": ["compound", "CC50"],
 "data": [
  ["OC[C@@H]1[C@@H](O)[C@H](O)[C@@H](O)CN1CC/C=C\\CCOc1cc(F)ccc1F [Compound 5c]", "> 500 µM"]
]}

* * *

Tested on: human plasma protein
Assay: Human plasma protein binding

{"columns": ["structure_smiles", "units_text", "Human Plasma Protein Binding"],
 "data": [
  ["Cc1cccc(OCCCCCCN2C[C@H](O)[C@@H](O)[C@H](O)[C@H]2CO)c1", "% bound", 80],
  ["CCC(O)(CC)CCCCCCN1C[C@H](O)[C@@H](O)[C@H](O)[C@H]1CO", "% bound", 33],
  ["COc1ccccc1OCCCCCCN1C[C@H](O)[C@@H](O)[C@H](O)[C@H]1CO", "% bound", 65],
  ["OC[C@@H]1[C@@H](O)[C@H](O)[C@@H](O)CN1CCCCCCOC1CCCCCC1", "% bound", 71],
  ["OC[C@@H]1[C@@H](O)[C@H](O)[C@@H](O)CN1CCCCCCOc1cc(F)ccc1F", "% bound", 74],
  ["CCCOc1cccc(CCCN2C[C@H](O)[C@@H](O)[C@H](O)[C@H]2CO)c1", "% bound", 68],
  ["CCCC(CCC)OCCCCCCN1C[C@H](O)[C@@H](O)[C@H](O)[C@H]1CO", "% bound", 91],
  ["OC[C@@H]1[C@@H](O)[C@H](O)[C@@H](O)CN1CCCCCCOc1cccc(C(F)(F)F)c1", "% bound", 93],
  ["OC[C@@H]1[C@@H](O)[C@H](O)[C@@H](O)CN1CCCCCCOc1cccc(F)c1", "% bound", 78],
  ["OC[C@@H]1[C@@H](O)[C@H](O)[C@@H](O)CN1CCCCCCOCc1ccccc1", "% bound", 52]
]}

* * *

System: rat plasma protein
Assay: Rat plasma protein binding
observed_property: Rat Plasma Protein Binding

{"columns": ["structure_smiles", "observed_property", "assay_value"],
 "data": [
  ["OC[C@@H]1[C@@H](O)[C@H](O)[C@@H](O)CN1CCCCCCOc1cccc(F)c1", "Rat Plasma Protein Binding", "71 % bound"],
  ["COc1ccccc1OCCCCCCN1C[C@H](O)[C@@H](O)[C@H](O)[C@H]1CO", "Rat Plasma Protein Binding", "70 % bound"],
  ["OC[C@@H]1[C@@H](O)[C@H](O)[C@@H](O)CN1CCCCCCOc1cc(F)ccc1F", "Rat Plasma Protein Binding", "68 % bound"]
]}
